- SUBJECT OF TEST: Melanocortin receptor 4 (Homo sapiens, UniProt P32245)
- Sequence (P32245 whole entry): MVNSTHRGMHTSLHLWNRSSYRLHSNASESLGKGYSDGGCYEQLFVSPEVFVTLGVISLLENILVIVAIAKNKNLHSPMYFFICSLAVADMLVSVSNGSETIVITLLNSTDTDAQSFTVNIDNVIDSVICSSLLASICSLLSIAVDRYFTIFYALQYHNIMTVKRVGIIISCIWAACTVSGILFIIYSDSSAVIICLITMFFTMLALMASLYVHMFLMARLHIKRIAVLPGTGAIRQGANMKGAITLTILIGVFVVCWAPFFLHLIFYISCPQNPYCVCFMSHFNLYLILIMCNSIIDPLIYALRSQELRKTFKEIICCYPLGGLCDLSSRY
- TEST NAME: Agonistic activity against human melanocortin receptor (hMC4R) for cAMP accumulation
- Assay type: functional
Please go through the items and note down their EC50.
One number for each entry, in nM.

Below, 3 compounds whose answers are already recorded.
- CCCCC(=O)N[C@H]1CC(=O)NCCCC[C@@H](C(N)=O)NC(=O)[C@H](Cc2c[nH]c3ccccc23)NC(=O)[C@H](CCCN=C(N)N)NC(=O)[C@@H](Cc2ccccc2)NC(=O)C2(CCc3c(Cl)cccc3C2)NC1=O (single isomer, unassigned; form 2): 40
- CCCCC(=O)N[C@H]1CC(=O)NCCCC[C@@H](C(N)=O)NC(=O)[C@H](Cc2c[nH]c3ccccc23)NC(=O)[C@H](CCCNC(N)=O)NC(=O)[C@@H](Cc2ccccc2)NC(=O)C2(CCc3c(Cl)cccc3C2)NC1=O (single isomer, unassigned; form 2): 105
- CCCCC(=O)N[C@H]1CC(=O)NCCCC[C@@H](C(N)=O)NC(=O)[C@H](Cc2c[nH]c3ccccc23)NC(=O)[C@H](CCCNC(N)=O)NC(=O)[C@@H](Cc2ccccc2)NC(=O)C2(CCc3c(Cl)cccc3C2)NC1=O (single isomer, unassigned; form 1): 48

Now for a further compound.
Task: What value of measured EC50 is listed for CCCCC(=O)N[C@H]1CC(=O)NCCCC[C@@H](C(N)=O)NC(=O)[C@H](Cc2c[nH]c3ccccc23)NC(=O)[C@H](CCCN=C(N)N)NC(=O)[C@@H](Cc2ccccc2)NC(=O)C2(CCc3c(Cl)cccc3C2)NC1=O (single isomer, unassigned; form 1) ?
Result: 4
